From: ChEMBL document CHEMBL3885881

Each item that follows carries a reported EOSINOPHIL.
- Species: Rattus norvegicus
- runDescription: DrugMatrix - Regimen: Daily Repeat
- Assay type: toxicity, organism-based, Sprague-Dawley
- Parameters: regimen Daily Repeat, gender Male, age 6-8 weeks
- experimentalContext: in vivo, po, 0 mg/kg, 120 h, tissue Blood, route oral GAVAGE, dose level Control, time 5 day, […]
Response body: numeric value in %, unit text excluded.

The cases that follow already have their EOSINOPHIL on record.
- compound: "CC(C)Cc1ccc(C(C)C(=O)O)cc1 (stereo unspecified)"
  measuredNumber: 0
- compound: "Cc1cccc(Nc2ccncc2S(=O)(=O)NC(=O)NC(C)C)c1 [TORSEMIDE]"
  measuredNumber: 0
- compound: "O=NN(CCCl)C(=O)NCCCl"
  measuredNumber: 0
- compound: "CC(=O)Nc1cccc(O)c1"
  measuredNumber: 0.33
- compound: "COc1ccc2[nH]c([S+]([O-])Cc3ncc(C)c(OC)c3C)nc2c1 (stereo unspecified)"
  measuredNumber: 0

Consider the record given below.
Ask: Look up and state reported EOSINOPHIL for CCCCCCCCc1ccc(O)cc1
Result: 0.33

----------
- Species on record: Rattus norvegicus
- runDescription: DrugMatrix - Regimen: Daily Repeat
- Type: toxicity, organism-based, Sprague-Dawley
- Parameters: regimen Daily Repeat, gender Male, age 6-8 weeks
- experimentalContext: in vivo, po, 0 mg/kg, 72 h, tissue Blood, route oral GAVAGE, dose level Control, time 3 day, […]
# NUCLEATED RED BLOOD CELLS per record follows

Ask: Input COc1ccc2cc([C@H](C)C(=O)O)ccc2c1 , output reported NUCLEATED RED BLOOD CELLS.
Result: 0 /100WBC

Ask: Determine its reported NUCLEATED RED BLOOD CELLS: C[C@H]1O[C@@H](O[C@H]2[C@@H](O)C[C@H](O[C@H]3[C@@H](O)C[C@H](O[C@H]4CC[C@@]5(C)[C@H](CC[C@@H]6[C@@H]5CC[C@]5(C)[C@@H](C7=CC(=O)OC7)CC[C@]65O)C4)O[C@@H]3C)O[C@@H]2C)C[C@H](O)[C@@H]1O
Result: 0.33 /100WBC

Ask: State, in one line, measured NUCLEATED RED BLOOD CELLS of O=C(O)Cc1ccccc1Nc1c(Cl)cccc1Cl
Result: 0.17 /100WBC

Ask: Tell us which NUCLEATED RED BLOOD CELLS value is on record for COc1ccc2[nH]c([S+]([O-])Cc3ncc(C)c(OC)c3C)nc2c1 (centres undefined)
Result: 0 /100WBC

----------
- Species on record: Rattus norvegicus
- runDescription: DrugMatrix - Regimen: Daily Repeat
- Type: toxicity, organism-based, Sprague-Dawley
- Design: regimen Daily Repeat, gender Male, age 6-8 weeks
- experimentalContext: in vivo, po, 0 mg/kg, 72 h, tissue Blood, route oral GAVAGE, dose level Control, time 3 day, […]
assayReadout: PLATELET COUNT (x10E3/uL)
Write the number in x10E3/uL without appending the unit.

Ask: // Input: CC(=O)Nc1ccc(O)cc1 . Output its PLATELET COUNT only.
Result: 1082.83

Ask: Using the record for O=C(O)Cc1ccccc1Nc1c(Cl)cccc1Cl , state its measured PLATELET COUNT.
Result: 1054.17

Ask: For the compound COCCOC(=O)C1=C(C)NC(C)=C(C(=O)OC(C)C)C1c1cccc([N+](=O)[O-])c1 (stereo unspecified) , report PLATELET COUNT.
Result: 989

Ask: Read off the recorded PLATELET COUNT for CCOC(=O)C(C)(C)Oc1ccc(Cl)cc1 [CLOFIBRATE]
Result: 1029

----------
- Species: Rattus norvegicus
- runDescription: DrugMatrix - Regimen: Daily Repeat
- Assay type: toxicity, organism-based, Sprague-Dawley
- Design: regimen Daily Repeat, gender Male, age 6-8 weeks
- experimentalContext: in vivo, po, 1500 mg/kg, 72 h, tissue Plasma, route oral GAVAGE, dose level High, time 3 day, vehicle .5 % CMC
# if measured TOTAL PROTEIN < 6 G/DL: TRUE  # else: FALSE

Solved entries (count: 5):
- molecule: "C[C@]1(Cn2ccnn2)[C@H](C(=O)O)N2C(=O)C[C@H]2S1(=O)=O [TAZOBACTAM]"
  labelValue: "TRUE"
- molecule: "O=C(N[C@H](CO)[C@H](O)c1ccc([N+](=O)[O-])cc1)C(Cl)Cl [CHLORAMPHENICOL]"
  labelValue: "TRUE"
- molecule: "CNC(=C[N+](=O)[O-])NCCSCc1ccc(CN(C)C)o1 [RANITIDINE]"
  labelValue: "TRUE"
- molecule: "CO[C@H]1/C=C/O[C@@]2(C)Oc3c(C)c(O)c4c(c3C2=O)C2=NC3(CCN(CC(C)C)CC3)NC2=C(NC(=O)/C(C)=C\\C=C\\[C@H](C)[C@H](O)[C@@H](C)[C@@H](O)[C@@H](C)[C@H](OC(C)=O)[C@@H]1C)C4=O [RIFABUTIN]"
  labelValue: "FALSE"
- molecule: "Cc1ccc(S(=O)(=O)NC(=O)NN2CC3CCCC3C2)cc1 (configuration not stated) [GLICLAZIDE]"
  labelValue: "TRUE"

Ask: In plain terms, does NC(=O)c1cnccn1 [PYRAZINAMIDE] come in under 6 G/DL for TOTAL PROTEIN?
Result: TRUE

----------
List of LACTATE DEHYDROGENASE values.
- Species on record: Rattus norvegicus
- runDescription: DrugMatrix - Regimen: Daily Repeat
- Assay type: toxicity, organism-based, Sprague-Dawley
- Design: regimen Daily Repeat, gender Male, age 6-8 weeks
- experimentalContext: in vivo, po, 10 mg/kg, 120 h, tissue Plasma, route oral GAVAGE, dose level Low, time 5 day, […]
Form entry: value (u/L) — number only.

- compound: "COc1ccc2cc([C@H](C)C(=O)O)ccc2c1"
  measuredNumber: 400

Ask: Using known records, supply LACTATE DEHYDROGENASE for CCOC(=O)C1=C(C)NC(C)=C(C(=O)OC)C1c1cccc([N+](=O)[O-])c1 (centres undefined)
Result: 166.67

Ask: // Input: COCCOC(=O)C1=C(C)NC(C)=C(C(=O)OC(C)C)C1c1cccc([N+](=O)[O-])c1 (centres undefined) . Output its LACTATE DEHYDROGENASE only.
Result: 194.33

Ask: Give a short answer stating reported LACTATE DEHYDROGENASE for CC(C)CC(N(C)C)C1(c2ccc(Cl)cc2)CCC1 (centres undefined) .
Result: 269

----------
- Species on record: Rattus norvegicus
- runDescription: DrugMatrix - Regimen: Daily Repeat
- Assay type: toxicity, organism-based, Sprague-Dawley
- Parameters: regimen Daily Repeat, gender Male, age 6-8 weeks
- experimentalContext: in vivo, iv, 0 mg/kg, 72 h, tissue Blood, dose level Control, time 3 day, vehicle 100 % SALINE
ERYTHROCYTE COUNT values for the compounds below.
Report the value in x10E6/uL with no unit label.

Solved cases (5 shown):
- compound: "CC(=O)N[C@@H]1[C@H](Oc2c3cc4cc2Oc2ccc(cc2Cl)[C@@H](O[C@@H]2O[C@@H](CO)[C@@H](O)[C@H](O)[C@@H]2NC(C)=O)[C@@H]2NC(=O)[C@H](NC(=O)[C@@H]4NC(=O)[C@H]4NC(=O)[C@@H](Cc5ccc(c(Cl)c5)O3)NC(=O)[C@H](N)c3ccc(O)c(c3)Oc3cc(O)cc4c3)c3ccc(O)c(c3)-c3c(O[C@H]4O[C@H](CO)[C@@H](O)[C@@H](O)[C@@H]4O)cc(O)cc3[C@@H](C(=O)O)NC2=O)O[C@@H](CO)[C@@H](O)[C@@H]1O"
  resultUnits: "x10E6/uL"
  ERYTHROCYTE COUNT: 5.68
- compound: "CCc1c2c(nc3ccc(OC(=O)N4CCC(N5CCCCC5)CC4)cc13)-c1cc3c(c(=O)n1C2)COC(=O)[C@]3(O)CC"
  resultUnits: "x10E6/uL"
  ERYTHROCYTE COUNT: 5.35
- compound: "CCC1=C[C@@H]2CN(C1)Cc1c([nH]c3ccccc13)[C@@](C(=O)OC)(c1cc3c(cc1OC)N(C)[C@H]1[C@@](O)(C(=O)OC)[C@H](OC(C)=O)[C@]4(CC)C=CCN5CC[C@]31[C@@H]54)C2"
  resultUnits: "x10E6/uL"
  ERYTHROCYTE COUNT: 5.63
- compound: "CC[C@]1(O)C[C@@H]2CN(CCc3c([nH]c4ccccc34)[C@@](C(=O)OC)(c3cc4c(cc3OC)N(C)[C@H]3[C@@](O)(C(=O)OC)[C@H](OC(C)=O)[C@]5(CC)C=CCN6CC[C@]43[C@@H]65)C2)C1"
  resultUnits: "x10E6/uL"
  ERYTHROCYTE COUNT: 5.39
- compound: "COc1cccc2c1C(=O)c1c(O)c3c(c(O)c1C2=O)C[C@@](O)(C(=O)CO)C[C@@H]3O[C@H]1C[C@H](N)[C@@H](O)[C@H](C)O1 [EPIRUBICIN]"
  resultUnits: "x10E6/uL"
  ERYTHROCYTE COUNT: 5.35

Now look at this one.
Ask: Return ERYTHROCYTE COUNT (reported value) for this compound: COc1cccc2c1C(=O)c1c(O)c3c(c(O)c1C2=O)C[C@@](O)(C(=O)CO)C[C@@H]3O[C@H]1C[C@H](N)[C@H](O)[C@H](C)O1
Result: 5.14
